system: HCT-116 colon; assay: NCI tumour cell line growth inhibition, 48 h
GI50 values for the molecules below.

Asked: Entry C#Cc1cccc(NC(=O)C2CCCCN2C(=O)CCl)c1 (stereo unspecified) : reported GI50 = ?
Given back: 13.7 µM

Asked: Next molecule: COc1cc(/C=C/[N+](=O)[O-])cc(OC)c1
Given back: 1.84 µM

Asked: Next molecule: CC(=O)OCc1cc[c]([Hg][Cl])o1
Given back: 10.1 µM

Asked: Next molecule: O=c1[nH]c(=O)n(C2C[C@@H](O)[C@@H](CO)O2)cc1F (stereo partly specified)
Given back: 0.0289 µM

Asked: Next molecule: Cn1cc(-c2nc(-c3c[nH]c4ccccc34)cs2)c2cccnc21
Given back: 0.364 µM

Asked: Next molecule: COc1ccc(COc2ccc(Cc3cnc(N)nc3N)cc2OC)cc1
Given back: 14.6 µM

###

test system: SK-MEL-28 melanoma; assay: NCI tumour cell line growth inhibition, 48 h
TGI values for the molecules below.

molecule	TGI
CC(=O)OC1CC[C@@]2(C)C(=CC[C@@H]3[C@@H]2CC[C@]2(C)Nc4c(cnn4-c4ccc(F)cc4)C[C@@H]32)C1 (stereo partly specified)	> 100 µM

Asked: Entry O=C1/C(=C/c2ccc(C(=O)O)cc2)CNC/C1=C\c1ccc(C(=O)O)cc1 : reported TGI = ?
Given back: > 100 µM

###

tested on: OVCAR-5 ovarian; assay: NCI tumour cell line growth inhibition, 48 h
readout_type: TGI

Below: 5 compounds and their reported TGI.
compound	assayed_target	readout_value
Nc1ncnc2c1ncn2Cc1ccc(CCl)cc1	OVCAR-5 ovarian	35.2 µM
O=[N+]([O-])c1cc(-c2ccc([As](=O)(O)O)cc2)ccc1[As](=O)(O)O	OVCAR-5 ovarian	> 100 µM
COC1C[C@H](O[C@@H]2C[C@H](O[C@@H]3C[C@H](O[C@@H]4C(=O)c5c(cc6cc(O[C@H]7C[C@@H](O[C@H]8C[C@@H](O)[C@H](O)C(C)O8)[C@H](O)C(C)O7)c(C)c(O)c6c5O)C[C@H]4C(OC)C(=O)[C@@H](O)[C@@H](C)O)OC(C)[C@H]3O)OC(C)[C@@H]2O)OC(C)[C@@H]1O (some centres undefined)	OVCAR-5 ovarian	> 32.5 µM
C#CCN(Cc1ccc2nc(-c3ccccc3)c(Cl)nc2c1)c1ccc(Cl)c(Cl)c1	OVCAR-5 ovarian	> 100 µM
COc1cc(N2CCN(C(C)C)CC2)ccc1Nc1nc(Nc2ccc(F)cc2C(N)=O)c2cc[nH]c2n1	OVCAR-5 ovarian	6.27 µM

Asked: Entry COc1ccc(C2CC(=O)Nc3c2c(C)nn3-c2nc3ccccc3[nH]2)cc1OC (centres undefined) : reported TGI = ?
Given back: > 77.2 µM

###

test system: DMS 273 small cell lung; assay: NCI tumour cell line growth inhibition, 48 h
readout_type: TGI (µM)
Expressed in µM, but write only the number.

Below: 2 compounds and their reported TGI.
compound	TGI, µM
O/N=C1/C(=C/c2ccc(Br)cc2)CCCC1C(NO)c1ccc(Br)cc1 (configuration not stated)	25.8
O=C1C(Nc2ccc(S(=O)(=O)Nc3cnc4ccccc4n3)cc2)=CC(=Nc2ccc(S(=O)(=O)Nc3cnc4ccccc4n3)cc2)c2ccccc21	24.4

Turning to the following compound.
Asked: Entry COc1ccc(/C=C2\CCC(C)(CN(C)C)C2=O)cc1Br (configuration not stated) : reported TGI = ?
Given back: 32.2

###

test system: MOLT-4 leukemia; test: NCI tumour cell line growth inhibition, 48 h; in the data active = GI50 below about 0.43 µM; inactive = the rest
Just give me one of these, please: active, inactive

compound	assayed_target	discrete_label
CCCN1CCN(c2ccc3nc(-c4ccc5nc(-c6ccc(OCC)cc6)[nH]c5c4)[nH]c3c2)CC1	MOLT-4 leukemia	inactive
COc1cc(N2CCN(C(C)C)CC2)ccc1Nc1nc(Nc2ccc(F)cc2C(N)=O)c2cc[nH]c2n1	MOLT-4 leukemia	inactive
CN1c2cccc[c]2[Sn]([CH3])([CH3])[c]2ccccc21	MOLT-4 leukemia	active
COc1cccc(/C=C/C(=O)c2cc3c(N)c(C(=O)Nc4ccccc4)sc3nc2C)c1	MOLT-4 leukemia	inactive
Fc1ccc(Nc2ccnc(N3CCN(c4ccnc5cc(Cl)ccc45)CC3)n2)cc1	MOLT-4 leukemia	inactive

Asked: Query: recorded result category for OCC1OC(n2cnc3cc(Cl)c(Cl)cc32)C(O)C1O (centres undefined) in this test
Given back: inactive

Asked: Next compound: c1ccc(OCC[P+](c2ccccc2)(c2ccccc2)c2ccccc2)cc1
Given back: inactive

Asked: Next compound: C=C1C(=O)O[C@H]2[C@H]1CC/C(COC(=O)NCCc1ccc(Br)cc1)=C\CC[C@@]1(C)O[C@@H]21
Given back: inactive

Asked: Next compound: CCN1C(=O)N(CC)C2C1NN=c1s/c(=C\c3ccc(Br)cc3)c(=O)n12 (centres undefined)
Given back: active

###

tested on: 786-0 renal; assay: NCI tumour cell line growth inhibition, 48 h
readout_type: TGI (µM)
Expressed in µM, but write only the number.

Below: 5 compounds and their reported TGI.
compound	unit_abbrev	TGI
O=C(C#Cc1ccccc1)Nc1ccccc1CC(c1c[nH]c2ccccc12)c1c[nH]c2ccccc12	µM	29.4
COc1cc(-c2cc(-c3ccc(Nc4nc(Nc5ccc(Cl)cc5)nc(Nc5ccc(Cl)cc5)n4)cc3)no2)cc(OC)c1OC	µM	20.1
Cc1ccc(S(=O)(=O)N(CC(O)COc2ccccc2)c2ccccc2Cl)cc1 (stereo unspecified)	µM	32.4
COc1cc2ccnc3c2c(c1OC)N(C)C=C3	µM	53.6
Cc1cc2nc3c(C)c4ccccc4c(C)n3c2cc1C	µM	6.62

Turning to the following compound.
Asked: Hello, I am looking for reported TGI with 786-0 renal for O=C(Nc1ccn(C2CCC(COC(c3ccccc3)(c3ccccc3)c3ccccc3)O2)c(=O)n1)c1ccccc1 (stereo unspecified) . Could you help?
Given back: 6.41

###

test system: SK-MEL-28 melanoma; test: NCI tumour cell line growth inhibition, 48 h
readout_type: GI50

compound_string	readout_type	readout_value
O=C(O)[C@@H](Cc1ccccc1)NS(=O)(=O)c1ccc(-c2ccccc2)cc1	GI50	> 100 µM
COc1cc(/C=C/[N+](=O)[O-])cc(OC)c1	GI50	2.75 µM

Turning to the following molecule.
Asked: Hello, I am looking for reported GI50 with SK-MEL-28 melanoma for Cc1cccc(Nc2ncc(-c3ccccc3)o2)c1 . Could you help?
Given back: > 25 µM

###

system: HOP-62 NSCLC; assay: NCI tumour cell line growth inhibition, 48 h
TGI values for the compounds below.
Expressed in µM, but write only the number.

Below: 4 compounds and their reported TGI.
compound_string	TGI / µM
c1ccc2cc(Cn3c(-c4cccc5ccccc45)[n+](Cc4ccc5ccccc5c4)c4c5ccccc5c5ccccc5c43)ccc2c1	2.45
O=C1NC(=O)/C(=C/c2ccc3nccc(-c4ccncc4)c3c2)S1	4.26
Cc1ccccc1N=C(c1ccccc1)C1C(=O)c2ccccc2C1=O	63.9
CN(C)c1ccc(/C=C(\C#N)C(=O)c2ccccc2)cc1Br	39.6

Turning to the following compound.
Asked: Entry O=C(Nc1c(Cl)cccc1Cl)Oc1cccc2cccnc12 : reported TGI = ?
Given back: 21

###

system: IGROV1 ovarian; assay: NCI tumour cell line growth inhibition, 48 h
readout_type: TGI

compound	readout_value
O=C(N/N=C/c1ccc(O)cc1)NNCCO	> 100 µM

Asked: Entry CCOP(=O)(OCC)C(Cc1cn(S(=O)(=O)c2ccc(C)cc2)cn1)C(=O)O (stereo unspecified) : reported TGI = ?
Given back: > 100 µM

Asked: Next compound: Clc1cccc(C=NC23CC4CC(CC(C4)C2)C3)c1Cl
Given back: > 10 µM

###

tested on: MDA-MB-231 breast; experiment: NCI tumour cell line growth inhibition, 48 h
readout_type: TGI

Below: 5 molecules and their reported TGI.
molecule	readout_value
Cc1cccc(Nc2ncc(-c3ccccc3)o2)c1	> 25 µM
COc1cc(-c2cc(-c3ccc(Nc4nc(Nc5ccc(Cl)cc5)nc(Nc5ccc(Cl)cc5)n4)cc3)no2)cc(OC)c1OC	> 100 µM
Nc1cc2c3ccccc3ccc2c2ccccc12	> 100 µM
O=C(COc1ccc(Cl)cc1Cl)NNc1ccc([N+](=O)[O-])cc1	> 100 µM
CC(C)C(C=O)C(O)(C(F)(F)F)C(F)(F)F (stereo unspecified)	> 100 µM

Turning to the following molecule.
Asked: Entry Cc1ccc2c(=O)cc(-c3ccccc3)[nH]c2n1 : reported TGI = ?
Given back: 22.8 µM

###

system: HOP-62 NSCLC; assay: NCI tumour cell line growth inhibition, 48 h
readout_type: TGI

Below: 5 compounds and their reported TGI.
compound	assayed_target	TGI
COC(=O)[C@@]1(Cc2ccc(OC(C)=O)cc2)Cc2cc3ccccc3n2N1	HOP-62 NSCLC	> 100 µM
C=c1c2ccccc2oc2nc3[nH]c(N)c(C#N)c(N)c3c(=N)c12	HOP-62 NSCLC	> 100 µM
C=C1[C@H](O)C[C@@H](C(C)C(O)CC=C(C)C)[C@@H](O)[C@@H]2C(C)=CC[C@@H]12 (stereo not given in full)	HOP-62 NSCLC	> 100 µM
Nc1nc(N)c2c(n1)NC(c1ccc(Cl)cc1)C1CCc3ccccc3C1=N2 (stereo not given)	HOP-62 NSCLC	23.7 µM
O=C(COc1ccc(Cl)cc1Cl)NNc1ccc([N+](=O)[O-])cc1	HOP-62 NSCLC	38.6 µM

Asked: Entry Cc1ccnc2[nH]c(-c3ccc(Cl)cc3)cc(=O)c12 : reported TGI = ?
Given back: > 93.5 µM

Asked: Next compound: Cc1cc(S(=O)(=O)Nc2nc3ccccc3s2)c(SCc2ccccc2)cc1Cl
Given back: > 100 µM

Asked: Next compound: CCCCCCCC(=O)[O-].N.N.N.N.N.[Co+3].[O-][Cl+3]([O-])([O-])[O-]
Given back: > 100 µM

Asked: Next compound: Cc1cc(NCCCCCCCCNc2cc(C)nc3cc(N(C)C)ccc23)c2ccc(N(C)C)cc2n1
Given back: 29 µM

Asked: Next compound: CC(=O)O[C@H]1C(=O)[C@@]2(C)C(C(OC(=O)c3ccccc3)[C@]3(O)CC(OC(=O)C(O)C(NC(=O)c4cccc(Cl)c4)c4ccccc4)C(C)=C1C3(C)C)[C@]1(OC(C)=O)CO[C@@H]1C[C@@H]2O (stereo not given in full)
Given back: > 10 µM

Asked: Next compound: C#CCN1C(=O)CN2C(Cl)(Cl)C2(c2ccccc2)c2cc(Cl)ccc21 (stereo not given)
Given back: > 100 µM
